# assayed-system: T1, cyno IL-6R on CHO-K1 cells, clone CyIL6R 405 (cynomolgus monkey (extracellular domain), UniProt A0A2K5WN54 60-499)
# T1 construct: whole, on cells; chimeric construct on cells; also called CHO K1-cynomolgous IL-6R
# T1 sequence: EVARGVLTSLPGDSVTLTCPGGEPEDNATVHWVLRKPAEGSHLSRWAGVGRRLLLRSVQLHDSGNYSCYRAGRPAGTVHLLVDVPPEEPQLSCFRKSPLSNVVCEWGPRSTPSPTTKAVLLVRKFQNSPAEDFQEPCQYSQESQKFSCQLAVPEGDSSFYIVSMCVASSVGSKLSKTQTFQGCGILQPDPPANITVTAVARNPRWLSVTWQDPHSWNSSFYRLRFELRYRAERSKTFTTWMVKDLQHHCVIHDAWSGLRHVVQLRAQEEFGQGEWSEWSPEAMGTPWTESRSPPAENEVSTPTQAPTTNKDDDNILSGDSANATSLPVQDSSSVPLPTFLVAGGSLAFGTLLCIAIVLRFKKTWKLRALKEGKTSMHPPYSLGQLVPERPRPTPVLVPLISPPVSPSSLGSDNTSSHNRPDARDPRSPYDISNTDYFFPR
# assay-comment: FMAT on CHO cells, competitor labelled Reference IgG
readout-name: IC50 (nM)

Worked set:
IL6RPMP103C4 (VHH, family 19; also called IL6R103C4) VHH: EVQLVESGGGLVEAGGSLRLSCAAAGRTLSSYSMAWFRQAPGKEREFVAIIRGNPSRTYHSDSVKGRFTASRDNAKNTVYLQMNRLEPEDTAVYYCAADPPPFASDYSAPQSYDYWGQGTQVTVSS : 30
reference Fab (Fab, V domains shown, expressed in the periplasm of E. coli) VH: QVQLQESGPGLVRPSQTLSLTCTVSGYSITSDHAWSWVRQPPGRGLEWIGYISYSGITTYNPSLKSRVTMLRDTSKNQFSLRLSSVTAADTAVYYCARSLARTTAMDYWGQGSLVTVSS VL: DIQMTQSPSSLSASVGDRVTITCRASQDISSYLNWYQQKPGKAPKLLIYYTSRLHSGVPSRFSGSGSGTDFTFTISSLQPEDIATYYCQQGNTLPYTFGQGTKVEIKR : 0.8

[1] IL6RPMP103C7 (VHH, family 28) VHH: EVQLVESGGGLVQAGGSLSLSCATSGRTISDDTMAWFRQAPGKEREFVATITFSGARTHYSDSVRDRFTISRDNAKNTVYLQMDSLKSEDTAVYYCAASTKYYSSTYNYIHPAFYDIWGQGTQVTVSS
[2] IL6RPMP120A5 (VHH, family 28; also called IL6R120A5) VHH: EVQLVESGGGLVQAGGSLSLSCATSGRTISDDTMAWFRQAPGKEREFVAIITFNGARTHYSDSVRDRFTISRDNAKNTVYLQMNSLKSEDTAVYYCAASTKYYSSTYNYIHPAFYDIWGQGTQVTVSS
[3] IL6RPMP105E1 (VHH, family 7; also called PMP105E01; IL6R105E1) VHH: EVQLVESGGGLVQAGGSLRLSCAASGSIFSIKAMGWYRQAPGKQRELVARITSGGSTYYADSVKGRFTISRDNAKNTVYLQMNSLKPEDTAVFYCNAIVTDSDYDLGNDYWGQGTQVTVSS
Challenge: Please list the entries, largest IC50 first. Give the labels in the order specified.
Response given: 1, 2, 3
